protocol_text: 13-week repeated oral toxicity: weight measurement
Type: in vivo, beagle
study_conditions: 500 mg/kg repeated oral (G3), female, week 13, mean
attribute_measured: Weight, Mean (kg)
Number in kg, nothing else.

The molecule identified as CN1C(=O)NC(=O)C1O (stereo not shown) registered its Weight, Mean at 10

###

protocol_text: 13-week repeated oral toxicity: weight measurement
Assay type: in vivo, beagle
study_conditions: 200 mg/kg repeated oral (G2), male, week 2, mean
attribute_measured: Weight, Mean (kg)
Respond numerically; units are kg and should not be typed.

For this compound ( CN1C(=O)NC(=O)C1O (stereo not shown) [KBP-001] ), measured Weight, Mean is 10
